Hello, the source for this data is paper PMC9352680, in case you need it.

Molecular target: T1, PUF4 RNA-binding domain (Saccharomyces cerevisiae, UniProt P25339 537-888)
T1 sequence: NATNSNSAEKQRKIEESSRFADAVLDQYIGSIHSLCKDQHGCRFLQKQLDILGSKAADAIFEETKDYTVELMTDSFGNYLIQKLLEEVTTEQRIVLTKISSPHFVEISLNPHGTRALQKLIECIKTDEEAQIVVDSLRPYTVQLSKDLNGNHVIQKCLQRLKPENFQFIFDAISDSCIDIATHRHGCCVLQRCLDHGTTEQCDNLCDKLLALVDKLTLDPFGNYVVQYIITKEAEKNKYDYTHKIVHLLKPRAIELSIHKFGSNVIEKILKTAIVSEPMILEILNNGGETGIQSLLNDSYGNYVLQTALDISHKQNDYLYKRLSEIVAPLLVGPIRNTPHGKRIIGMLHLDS
Experiment: Mg; RNA-MaP; 20 mM Na-HEPES pH 7.4, 30 mM KOAc, 0.75 mM MgCl2, 0.1% Tween-20, 5% glycerol, 0.1 mg/mL BSA, 2 mM DTT; 25 C; 0.0125-409.6 nM protein
Details: tags: N-His6-TEV cleaved; C-SNAP kept, Cy3B-labelled; label: tethered on chip by stalled RNA polymerase
pKd: −log10 of the molar value.
// class 0 strictly below 7 in pKd; class 1 otherwise

Prompt: Is reported pKd greater than or equal to 7 here: UCUCUUCGUAUCAUUAUCUCUU (ssRNA) [Ib_S1_P5E.1_K5.1_C5.1_H5.1_[T1C]_A5.1_[T6C]_F5.1_T5.1]
Completion: class 0

Prompt: Also need UCUCUUCUUCUCGUAUAUAUAUCUCUU (ssRNA) [Ie_S1_P3E.2_K3.1_C3.2_H3.1_[+1CTC]_A3.1_F3.1_T3.2] , thanks.
Completion: class 0

Prompt: Then Id_ii_S2_P3E.4_K3.3_C3.2_[C-2A]_[T-1A]_H3.3_A3.1_F3.1_T3.2_[T9A]_[A10T] (ssRNA) RNA: UUUGAUUAAUAUGAUAUCGUUCUUUCUAAACACUAUAAUUUCUUUCUCGAUAUCAUAUUAAUCUUU ?
Completion: class 0

Prompt: Follow-up entry: UCUCUUUGUAGCCUACUCUCUU (ssRNA) [Ic_S1_P5E.1_K5.1_C5.1_H5.1_A5.1_[T5G]_[T6C]_[A7C]_F5.1_[T9A]_[A10C]_T5.1]
Completion: class 1

Prompt: Same lookup for Ic_S4_P5E.1_K5.1_C5.1_H5.1_A5.1_[T6A]_[A7T]_F5.1_[T8C]_[T9G]_[A10C]_T5.1 (ssRNA) RNA: UUUGACAACUGAUCGUUCUUUCUUGUAUAUCGCUUCUUUCUCGAUCAGUUGUCUUU , please.
Completion: class 1

Prompt: Quick one: UCUCUUUCUAUAUUAUUAUCUCUCUU (ssRNA) [Id_ii_S1_P5E.3_K5.2_C5.2_[C-2T]_[T-1C]_H5.2_A5.1_F5.1_T5.2_[A12C]]
Completion: class 0
